A collection of compounds and their measured z-score
tgt: Homeobox protein Hox-A13 (Mus musculus) (UniProt Q62424)
Sequence (Q62424 whole entry, looked up): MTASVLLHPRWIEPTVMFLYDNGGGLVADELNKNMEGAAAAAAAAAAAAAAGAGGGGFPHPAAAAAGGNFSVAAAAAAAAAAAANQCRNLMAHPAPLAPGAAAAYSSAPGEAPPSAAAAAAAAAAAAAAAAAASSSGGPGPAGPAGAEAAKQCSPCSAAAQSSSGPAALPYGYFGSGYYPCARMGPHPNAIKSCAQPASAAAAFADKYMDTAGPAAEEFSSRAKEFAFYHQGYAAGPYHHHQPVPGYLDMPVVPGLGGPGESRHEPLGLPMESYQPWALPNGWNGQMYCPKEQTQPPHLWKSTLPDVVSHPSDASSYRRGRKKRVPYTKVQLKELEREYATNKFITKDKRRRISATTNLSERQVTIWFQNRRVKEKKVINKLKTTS
test_method_notes: disruptors of Hoxa13 oligonucleotide interaction – biochemical, fluorescence polarization, labeled oligonucleotide, primary screen (AID 1185)
condition_summary: Hoxa13:DNA binding, 15 min, higher = more signal, called active from +8 up or from −8 down
measured_parameter: z-score

compound	reported_result
O=C1C2C=CC(C(O)c3ccc(Br)cc3)N(Nc3ccccc3)C2C(=O)N1c1ccccc1 (configuration not stated)	-3.62
CC(=O)NCCCC[C@@H]1NC(=O)[C@@H]2C[C@H](C(=O)NCCCC[N+](C)(C)C)[C@H](c3cccc(OCCO)c3)N2C1=O	-2.25
CCC[C@@H]1C[C@@]1(CCC)[C@@H](NC(=O)c1cccs1)c1ccc(Cl)cc1	-1.93
O=[N+]([O-])c1ccc(C[n+]2ccc(-c3ccc(CO)cc3)cc2)o1	-3.8
COC(=O)C(CC#Cc1ccc2c(c1)[C@]1(C(=O)N2)[C@H](c2ccc(O)cc2)N2[C@H](c3ccccc3)[C@H](c3ccccc3)OC(=O)[C@H]2[C@@H]1C(N)=O)C(=O)OC	0.452
Cc1ccccc1C(O)C1C=CC2C(=O)N(C)C(=O)C2N1Nc1ccc([N+](=O)[O-])cc1[N+](=O)[O-] (configuration not stated)	-4.08
C[N+](C)(C)CCCC[C@@H]1NC(=O)[C@@H]2C[C@H](C(=O)NCCCCCNC(=O)CS)[C@H](c3cccc(OCCO)c3)N2C1=O	-3.31

* * *

A collection of compounds and their measured composite z-score
System: Sonic hedgehog protein (Shh)
test_method_notes: Sonic hedgehog microarray binding compounds – biochemical, small-molecule microarray, 635/667 nm fluorescence, primary screen (AID 1151);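 note: Shh protein binding to compounds spotted on small-molecule microarray slides; score combines spot fluorescence intensity with signal-to-noise across triplicate slides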
condition_summary: 635 nm fluorescence, higher = more signal

mol	composite z-score
CC(C)[Si](C#C[Si](C(C)C)(C(C)C)C(C)C)(O[C@H](C)c1cn(Cc2cccc(Cl)c2)nn1)C(C)C	0.632
COCCOC(=O)N1C(=O)[C@@]2(c3cc(C#CCCO)ccc31)[C@H](C(=O)N1CCc3cc(OC)c(OC)cc3C1)[C@H]1C(=O)O[C@H](c3ccccc3)[C@H](c3ccccc3)N1[C@@H]2c1ccc(OCCO)cc1	2.13
NC(=O)[C@H]1[C@@H]2C(=O)O[C@@H](c3ccccc3)[C@@H](c3ccccc3)N2[C@@H](c2ccc(O)cc2)[C@]12C(=O)Nc1ccc(C#CC3(O)CCCCCC3)cc12	1.46

* * *

A collection of molecules and their measured composite z-score
tgt: Albumin (Bos taurus) (UniProt P02769)
Sequence (P02769 whole entry, looked up): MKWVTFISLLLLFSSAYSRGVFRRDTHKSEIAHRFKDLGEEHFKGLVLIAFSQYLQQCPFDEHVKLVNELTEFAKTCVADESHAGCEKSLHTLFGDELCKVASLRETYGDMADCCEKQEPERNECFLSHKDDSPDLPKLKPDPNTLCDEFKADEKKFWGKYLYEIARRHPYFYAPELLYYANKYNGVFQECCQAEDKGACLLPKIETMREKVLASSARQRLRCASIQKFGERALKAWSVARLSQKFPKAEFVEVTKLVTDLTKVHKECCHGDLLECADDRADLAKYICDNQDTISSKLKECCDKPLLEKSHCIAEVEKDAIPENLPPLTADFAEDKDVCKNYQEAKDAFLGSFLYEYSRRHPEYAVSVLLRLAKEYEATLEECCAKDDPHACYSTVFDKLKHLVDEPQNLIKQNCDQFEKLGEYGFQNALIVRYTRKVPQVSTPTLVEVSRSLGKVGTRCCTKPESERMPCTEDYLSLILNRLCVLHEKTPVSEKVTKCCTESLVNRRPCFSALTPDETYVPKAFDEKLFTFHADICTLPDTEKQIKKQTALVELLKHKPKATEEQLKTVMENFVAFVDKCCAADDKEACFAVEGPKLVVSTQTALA
test_method_notes: compounds binding labelled BSA control protein – biochemical, small-molecule microarray, Alexa647 label, 635/667 nm fluorescence, artefact control for SMM control protein annotation, profiling panel (AID 1118);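 note: score merges 667 nm emission intensity and signal-to-noise per printed compound spot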
condition_summary: BSA-A647 binding, fluorescence 635 nm, higher = more signal

molecule	tgt	composite z-score
CC(C)c1ccc(NN2C(C(O)c3ccccn3)C=CC3C(=O)N(c4ccccc4)C(=O)C32)cc1 (stereo unspecified)	Albumin (Bos taurus) (UniProt P02769)	0.835
COC(=O)[C@]1(Cc2ccccc2N=[N+]=[N-])N=C(c2ccc(OCCCO)cc2)O[C@@H]1c1ccccc1	Albumin (Bos taurus) (UniProt P02769)	-0.274
COc1ccccc1CN1C(=O)c2ccccc2[C@@]2(Cc3ccccc3N(C3CC3)C2=O)[C@@H]1c1ccc(CO)cc1	Albumin (Bos taurus) (UniProt P02769)	0.0999
C=C(/C(=C/C[C@@H](OC(C)=O)c1ccccc1OCCO)c1cnc2ccccc2c1)C(C)C	Albumin (Bos taurus) (UniProt P02769)	0.23
COc1cc(NN2C(C(O)c3ccc(I)cc3)C=CC3C(=O)N(C)C(=O)C32)cc(OC)c1OC (stereo unspecified)	Albumin (Bos taurus) (UniProt P02769)	-0.166
O=C1c2ccccc2C(=O)C2CC([C@H]3Oc4ccccc4S(=O)(=O)N4CCC[C@@H]34)=CCC12 (stereo partly specified)	Albumin (Bos taurus) (UniProt P02769)	0.793
O=C1C[C@@](C(=O)NCc2ccccc2)(c2ccc([N+](=O)[O-])cc2)[C@@H](c2ccc(CO)cc2I)N1C1CCCCC1	Albumin (Bos taurus) (UniProt P02769)	-0.13
CCN(CC)c1ccc(N2CC=CC34O[C@@H]5/C=C\CCCOC(=O)C5[C@H]3C(=O)N(CCCCCCO)[C@@H]4C2=O)cc1 (stereo partly specified)	Albumin (Bos taurus) (UniProt P02769)	0.248
COC(=O)[C@@]1(Cc2ccc(OC)cc2)[C@H]2c3cc(C(=O)N(C)C)n(Cc4cc(F)c(F)c(F)c4)c3C[C@H]2CN1C(=O)c1ccccc1	Albumin (Bos taurus) (UniProt P02769)	0.895
CN(C)CCCN1C(=O)[C@@]2(Cc3ccccc31)c1ccccc1C(=O)N(Cc1ccccc1)[C@H]2c1ccc(CO)cc1	Albumin (Bos taurus) (UniProt P02769)	-0.153
C=CCC(OC(C)=O)[C@@H]1[C@@H](N(Cc2ccc(-c3ccccc3)cc2)C(=O)c2cccc3ccccc23)c2cc(OCCCO)ccc2N1C(=O)c1ccc2ccccc2n1 (stereo partly specified)	Albumin (Bos taurus) (UniProt P02769)	0.028
O=C(NCc1ccccc1)[C@]1(Cc2ccccc2)N=C(c2ccc(OCCCO)cc2)O[C@@H]1c1ccccc1	Albumin (Bos taurus) (UniProt P02769)	0.895
COc1ccccc1CN1C(=O)c2ccccc2[C@](Cc2ccccc2I)(C(=O)NCCN2CCOCC2)[C@@H]1c1ccc(CO)cc1	Albumin (Bos taurus) (UniProt P02769)	0.655
Cc1ccc(C(C)CC(O)C2C=CC3C(=O)N(Cc4ccccc4)C(=O)C3N2n2cnnc2)o1 (stereo unspecified)	Albumin (Bos taurus) (UniProt P02769)	1.03
COCCCNC(=O)[C@@]1(Cc2ccccc2I)c2ccccc2C(=O)N(Cc2ccccc2Cl)[C@H]1c1ccc(CO)cc1	Albumin (Bos taurus) (UniProt P02769)	0.681
CC(C)(C)N1CC=CC23O[C@@H]4C=CCCOC(=O)C4[C@H]2C(=O)N(CCCO)[C@@H]3C1=O (stereo partly specified)	Albumin (Bos taurus) (UniProt P02769)	-2.01
